These measurements were taken from the NIST ThermoML archive (doi:10.1021/je400529k).

- ASSAY_CONTEXT: 293.15 K; 101 kPa; Liquid; Vibrating tube method
EXPERIMENTAL_READOUT: mass density (kg/m3)

MOLECULE	mass density / kg/m3
CC1CCCCC1 [methylcyclohexane]	769.35
C1CCCCC1 [cyclohexane]	778.51
CC1CCC(C)C(C)C1 (stereo unspecified) [1,2,4-trimethylcyclohexane]	790.8
CCC1CCCCC1 [ethylcyclohexane]	788.02
CCCCC1CCCCC1 [butylcyclohexane]	799.47
C1C[C@@H]2[C@H]3CC[C@H](C3)[C@@H]2C1 [exo-tetrahydrodicyclopentadiene]	935.72

* * *

- ASSAY_CONTEXT: 318.15 K; 101 kPa; Liquid; Vibrating tube method
EXPERIMENTAL_READOUT: mass density (kg/m3)

COMPOUND	READING_UNIT	VALUE_OBSERVED
CCC1CCCCC1 [ethylcyclohexane]	kg/m3	767.78
C1C[C@@H]2[C@H]3CC[C@H](C3)[C@@H]2C1 [exo-tetrahydrodicyclopentadiene]	kg/m3	916.18
CCCCC1CCCCC1 [butylcyclohexane]	kg/m3	780.65
CC1CCC(C)C(C)C1 (stereo not given) [1,2,4-trimethylcyclohexane]	kg/m3	771.32
CC1CCCCC1 [methylcyclohexane]	kg/m3	747.6

* * *

- ASSAY_CONTEXT: 308.15 K; 101 kPa; Liquid; Capillary tube (Ostwald / Ubbelohde) method
EXPERIMENTAL_READOUT: viscosity (mPa·s)

Known viscosity results, listed for orientation:
MOLECULE	EXPERIMENTAL_READOUT	VALUE_OBSERVED
CCC1CCCCC1 [ethylcyclohexane]	viscosity	0.7
CCCCC1CCCCC1 [butylcyclohexane]	viscosity	1.032
CC1CCC(C)C(C)C1 (stereo unspecified) [1,2,4-trimethylcyclohexane]	viscosity	0.727

a = C1CCCCC1 [cyclohexane]
b = C1C[C@@H]2[C@H]3CC[C@H](C3)[C@@H]2C1 [exo-tetrahydrodicyclopentadiene]
I'm curious whether a or b has the smaller viscosity number. Which is it? Give the label of your selection.
a

* * *

- EXPERIMENT_DESCRIPTION: refractive index (Na D-line) (dimensionless)
- ASSAY_CONTEXT: 313.15 K; 101.33 kPa; Liquid; Standard Abbe refractometry
EXPERIMENTAL_READOUT: refractive index

COMPOUND	VALUE_OBSERVED
CC1CCC(C)C(C)C1 (stereo unspecified)	1.424
C1C[C@@H]2[C@H]3CC[C@H](C3)[C@@H]2C1 [exo-tetrahydrodicyclopentadiene]	1.4786
C1CCCCC1	1.4143
CCCCC1CCCCC1	1.4311
CCC1CCCCC1	1.4225
CC1CCCCC1	1.4118

* * *

- ASSAY_CONTEXT: 298.15 K; 101 kPa; Liquid; Capillary tube (Ostwald / Ubbelohde) method
EXPERIMENTAL_READOUT: viscosity (mPa·s)

Recorded viscosity, per entry:
COMPOUND	EXPERIMENTAL_READOUT	VALUE_OBSERVED
C1C[C@@H]2[C@H]3CC[C@H](C3)[C@@H]2C1 [exo-tetrahydrodicyclopentadiene]	viscosity	2.71
C1CCCCC1	viscosity	0.898

a = CCCCC1CCCCC1
b = CCC1CCCCC1
Which record would sort first by descending viscosity, a or b ? // respond with label for picked entry
a
(a: 1.2 mPa·s, b: 0.791 mPa·s)

* * *

- ASSAY_CONTEXT: 293.15 K; 101 kPa; Liquid; Capillary tube (Ostwald / Ubbelohde) method
EXPERIMENTAL_READOUT: viscosity (mPa·s)

I = C1C[C@@H]2[C@H]3CC[C@H](C3)[C@@H]2C1 [exo-tetrahydrodicyclopentadiene]
II = CC1CCC(C)C(C)C1 (stereo unspecified)
Which record would sort first by descending viscosity, I or II ? Please respond with the label that marks your chosen entry.
I

* * *

- ASSAY_CONTEXT: 303.15 K; 101 kPa; Liquid; Capillary tube (Ostwald / Ubbelohde) method
EXPERIMENTAL_READOUT: viscosity (mPa·s)

The examples below pair each entry with its known result.
COMPOUND	VALUE_OBSERVED
CC1CCCCC1	0.646
CCC1CCCCC1	0.743
C1CCCCC1	0.828

1 = CC1CCC(C)C(C)C1 (stereo unspecified)
2 = CCCCC1CCCCC1
3 = C1C[C@@H]2[C@H]3CC[C@H](C3)[C@@H]2C1 [exo-tetrahydrodicyclopentadiene]
Arrange the 3 compounds by rising viscosity, starting with the smallest. Use the labels to give the requested order.
1, 2, 3

* * *

- ASSAY_CONTEXT: 308.15 K; 101 kPa; Liquid; Vibrating tube method
EXPERIMENTAL_READOUT: mass density (kg/m3)

COMPOUND	EXPERIMENTAL_READOUT	READING_UNIT	VALUE_OBSERVED
CC1CCCCC1	mass density	kg/m3	756.36
CC1CCC(C)C(C)C1 (stereo unspecified)	mass density	kg/m3	779.13
C1C[C@@H]2[C@H]3CC[C@H](C3)[C@@H]2C1 [exo-tetrahydrodicyclopentadiene]	mass density	kg/m3	924.02
CCC1CCCCC1	mass density	kg/m3	775.93
CCCCC1CCCCC1	mass density	kg/m3	788.2
C1CCCCC1	mass density	kg/m3	764.36

* * *

- ASSAY_CONTEXT: 303.15 K; 101 kPa; Liquid; Vibrating tube method
EXPERIMENTAL_READOUT: mass density (kg/m3)

MOLECULE	mass density [kg/m3]
CCCCC1CCCCC1 [butylcyclohexane]	791.96
CCC1CCCCC1 [ethylcyclohexane]	779.98
C1CCCCC1 [cyclohexane]	769.11
CC1CCC(C)C(C)C1 (stereo not given) [1,2,4-trimethylcyclohexane]	783.03
CC1CCCCC1 [methylcyclohexane]	760.71

* * *

- EXPERIMENT_DESCRIPTION: refractive index (Na D-line) (dimensionless)
- ASSAY_CONTEXT: 303.15 K; 101.33 kPa; Liquid; Standard Abbe refractometry
EXPERIMENTAL_READOUT: refractive index

COMPOUND	refractive index
CCC1CCCCC1	1.4276
CCCCC1CCCCC1	1.4354
C1CCCCC1	1.4205
C1C[C@@H]2[C@H]3CC[C@H](C3)[C@@H]2C1 [exo-tetrahydrodicyclopentadiene]	1.4831
CC1CCCCC1	1.4172
CC1CCC(C)C(C)C1 (stereo unspecified)	1.4285

* * *

- ASSAY_CONTEXT: 313.15 K; 101 kPa; Liquid; Vibrating tube method
EXPERIMENTAL_READOUT: mass density (kg/m3)

MOLECULE	VALUE_OBSERVED
C1CCCCC1	759.57
CCCCC1CCCCC1	784.43
C1C[C@@H]2[C@H]3CC[C@H](C3)[C@@H]2C1 [exo-tetrahydrodicyclopentadiene]	920.11
CC1CCCCC1	751.99
CC1CCC(C)C(C)C1 (stereo unspecified)	775.23
CCC1CCCCC1	771.86

* * *

- ASSAY_CONTEXT: 313.15 K; 101 kPa; Liquid; Capillary tube (Ostwald / Ubbelohde) method
EXPERIMENTAL_READOUT: viscosity (mPa·s)

// solved cases for viscosity follow
MOLECULE	viscosity [mPa·s]
C1CCCCC1	0.712
CCC1CCCCC1	0.661
CC1CCC(C)C(C)C1 (stereo unspecified)	0.686

I = CCCCC1CCCCC1
II = CC1CCCCC1
III = C1C[C@@H]2[C@H]3CC[C@H](C3)[C@@H]2C1 [exo-tetrahydrodicyclopentadiene]
Ascending sort, viscosity. Submit the labels in the order that the ranking request calls for.
II, I, III

* * *

- ASSAY_CONTEXT: 298.15 K; 101 kPa; Liquid; Vibrating tube method
EXPERIMENTAL_READOUT: mass density (kg/m3)

MOLECULE	READING_UNIT	VALUE_OBSERVED
CCCCC1CCCCC1	kg/m3	795.71
CCC1CCCCC1	kg/m3	784.01
C1C[C@@H]2[C@H]3CC[C@H](C3)[C@@H]2C1 [exo-tetrahydrodicyclopentadiene]	kg/m3	931.84
CC1CCCCC1	kg/m3	765.04
C1CCCCC1	kg/m3	773.84
CC1CCC(C)C(C)C1 (stereo unspecified)	kg/m3	786.92

* * *

- EXPERIMENT_DESCRIPTION: refractive index (Na D-line) (dimensionless)
- ASSAY_CONTEXT: 293.15 K; 101.33 kPa; Liquid; Standard Abbe refractometry
EXPERIMENTAL_READOUT: refractive index

COMPOUND	refractive index
CCC1CCCCC1	1.4319
C1CCCCC1	1.4256
CCCCC1CCCCC1	1.4399
C1C[C@@H]2[C@H]3CC[C@H](C3)[C@@H]2C1 [exo-tetrahydrodicyclopentadiene]	1.4874
CC1CCCCC1	1.422
CC1CCC(C)C(C)C1 (stereo unspecified)	1.4331

* * *

- ASSAY_CONTEXT: 318.15 K; 101 kPa; Liquid; Capillary tube (Ostwald / Ubbelohde) method
EXPERIMENTAL_READOUT: viscosity (mPa·s)

The following compounds have reported results that may help.
COMPOUND	READING_UNIT	viscosity
CC1CCCCC1 [methylcyclohexane]	mPa·s	0.546
CC1CCC(C)C(C)C1 (stereo unspecified) [1,2,4-trimethylcyclohexane]	mPa·s	0.648

1 = CCC1CCCCC1 [ethylcyclohexane]
2 = C1C[C@@H]2[C@H]3CC[C@H](C3)[C@@H]2C1 [exo-tetrahydrodicyclopentadiene]
3 = CCCCC1CCCCC1 [butylcyclohexane]
// sort entries: viscosity, high to low List the labels in the requested order.
2, 3, 1
